# assay remarks: Antiproliferative activity against human PC3 cells after 96 hrs by MTT assay
# Assay type: functional
# applied conditions: PC-3, 96 h
Entries and their measured GI50 follow.
Provide only the numeric value, understood in µM.

Solved cases below.
Oc1cccc2ccc(Nc3cc(Cl)ccn3)nc12    2.81
Oc1ccc(Cl)c2ccc(Nc3cc(Cl)ccn3)nc12    25.5

The recorded GI50 for `CN1CCC(CNc2ccc3ncc(-c4cccc(OC(F)(F)F)c4)n3n2)CC1` is 4.86

The recorded GI50 for `Cc1ccnc(Nc2ccc3c(Cl)ccc(O)c3n2)c1` is 10.2

* * *

# assay remarks: Antiproliferative activity against human PC3 cells after 96 hrs by MTT assay
# Type: functional
# applied conditions: PC-3, 96 h
measured attribute: GI50 (µM)
Provide only the numeric value, understood in µM.

Solved cases below.
COc1cccc2ccc(Nc3ccccn3)nc12    7.47
COc1cccc2ccc(Nc3cc(C)ccn3)nc12    3.82
Cc1ccnc(Nc2ccc3cccc(O)c3n2)c1    5.84
Oc1cccc2ccc(Nc3ccccn3)nc12    2.6

The recorded GI50 for `Cc1ccnc(Nc2ccc3ccccc3n2)c1` is 26.7

The recorded GI50 for `Oc1ccc(Cl)c2ccc(Nc3ccccn3)nc12` is 1.29

The recorded GI50 for `Oc1cccc2ccc(Sc3ccccn3)nc12` is 20.9

The recorded GI50 for `COc1ccc(Cl)c2ccc(Nc3ccccn3)nc12` is 29.2

The recorded GI50 for `Oc1ccc(Br)c2ccc(Sc3ccccn3)nc12` is 10.2

The recorded GI50 for `Oc1ccc(Cl)c2ccc(Sc3ccccn3)nc12` is 10.2

The recorded GI50 for `COc1cccc2ccc(Nc3cc(Cl)ccn3)nc12` is 11.8

* * *

# target of assay: Serine/threonine-protein kinase pim-1 (Homo sapiens, UniProt P11309)
# Sequence (P11309 whole entry): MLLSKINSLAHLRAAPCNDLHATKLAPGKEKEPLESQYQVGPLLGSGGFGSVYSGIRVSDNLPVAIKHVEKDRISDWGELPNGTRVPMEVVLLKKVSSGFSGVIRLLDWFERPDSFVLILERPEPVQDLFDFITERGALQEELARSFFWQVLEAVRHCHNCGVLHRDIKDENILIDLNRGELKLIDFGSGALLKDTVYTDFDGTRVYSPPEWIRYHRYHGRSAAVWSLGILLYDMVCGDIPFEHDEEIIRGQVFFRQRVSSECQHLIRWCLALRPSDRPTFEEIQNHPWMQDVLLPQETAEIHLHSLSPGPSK
measured attribute: pIC50
Worth noting: pIC50 values are minus log10 of concentrations stated in mol/L.

Let me check: `Oc1ccc(Cl)c2ccc(Nc3ccccn3)nc12` , system Serine/threonine-protein kinase pim-1 (Homo sapiens, UniProt P11309), measured pIC50 is 6.12

* * *

# assay remarks: Antiproliferative activity against human PC3 cells after 96 hrs by MTT assay
# Assay type: functional
# applied conditions: PC-3, 96 h
Entries and their measured GI50 follow.

Solved cases below.
Oc1ccc(Br)c2ccc(Oc3ccccn3)nc12    > 30 µM
Clc1ccnc(Nc2ccc3ccccc3n2)c1    > 30 µM
Oc1cccc2ccc(Oc3ccccn3)nc12    > 30 µM
COc1ccc(Cl)c2ccc(Nc3cc(C)ccn3)nc12    > 30 µM

Pending molecule:
The recorded GI50 for `Oc1ccc(Cl)c2ccc(Oc3ccccn3)nc12` is > 30 µM
